The measured values listed here are drawn from paper PMC9854762.

- System: A. baumannii DH-243
- TEST NAME: Agar well-diffusion assay
- Assay type: cell-based
- PARTICULARS: Acinetobacter baumannii, DH243; A. baumannii DH-243; 50 µL of 10 mM per well; read-out: Diameter of Inhibition Zones (AZOI)
- Procedure: The synthesized compounds were initially screened for their in vitro antibacterial activity against the different Gram-positive and Gram-negative bacteria, tested using the agar well-diffusion assay. The turbidity of the bacterial suspensions was established to the 0.5 McFarland turbidity standard. The activity was performed on TS agar plates. […] The diameters of inhibition zones were measured and recorded in mm. A comparative study of the synthesized compounds was determined. […]
I'd be grateful if you could share measured zone of inhibition at 10000 µM for these entries.
Give bare numbers, in mm.

Would you be so kind as to report zone of inhibition at 10000 µM for each listed record?
1. CCOC(=O)c1ccc(N=Nc2c(N)nn3c(O)c(C#N)c(-c4ccc(N(C)C)cc4)nc23)cc1 [Compound 10a]
2. CCOC(=O)c1ccc(N=Nc2c(N)nn(C(N)=S)c2N)cc1
3. CCOC(=O)c1ccc(N=Nc2c(N)nn3c(-c4cccs4)cc(-c4ccccc4)nc23)cc1
4. CCOC(=O)c1ccc(N=Nc2c(N)nn(C(O)=CC#N)c2N)cc1
5. CCOC(=O)c1ccc(N=Nc2c(N)n[nH]c2N)cc1

a:
[29.1, 22.5, 19.7, 21.3, 29.3]
